Quick reference for protein stability index among some variants
B1: TNXB (parent)
chain: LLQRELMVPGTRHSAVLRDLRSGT

# Variants of: B1
# PROTOCOL: protein stability index of a GFP-peptide fusion (GPS, HEK-293T) (PSI 1-6); higher = more stable;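 note: lentivirally expressed fusions sorted by FACS into six bins by GFP to DsRed ratio, PSI derived from sequencing read proportions per bin multiplied by bin number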
# CONDITION_SET: c terminus: a fixed tail appended

- SEQUENCE_CODE: "LLQRELMVPGTRHSAVLTDLRSGT"
  protein stability index: 2.43
- SEQUENCE_CODE: "LLQRELMVPGTRHSAYLRDLRSGT"
  protein stability index: 3.05
- SEQUENCE_CODE: "LLQRELMVPGTRHSAVLRDVRSGT"
  protein stability index: 2.63
- SEQUENCE_CODE: "LQQRELMVPGTRHSAVLRDLRSGT"
  protein stability index: 3.54
- SEQUENCE_CODE: "LLQRELMVPGTRHSAVLRQLRSGT"
  protein stability index: 2.29
- SEQUENCE_CODE: "LLQRELMVPGTRHSEVLRDLRSGT"
  protein stability index: 2.92
- SEQUENCE_CODE: "LLQRELMVPGTRHSAVLRDLRSGC"
  protein stability index: 1.77
- SEQUENCE_CODE: "TLQRELMVPGTRHSAVLRDLRSGT"
  protein stability index: 3.02
- SEQUENCE_CODE: "LLQRELDVPGTRHSAVLRDLRSGT"
  protein stability index: 3.17
- SEQUENCE_CODE: "LLQRELFVPGTRHSAVLRDLRSGT"
  protein stability index: 2.02
- SEQUENCE_CODE: "YLQRELMVPGTRHSAVLRDLRSGT"
  protein stability index: 2.3
- SEQUENCE_CODE: "LLQGELMVPGTRHSAVLRDLRSGT"
  protein stability index: 2.43
- SEQUENCE_CODE: "LLQREEMVPGTRHSAVLRDLRSGT"
  protein stability index: 2.7
- SEQUENCE_CODE: "LLQCELMVPGTRHSAVLRDLRSGT"
  protein stability index: 2.49
- SEQUENCE_CODE: "LLQRECMVPGTRHSAVLRDLRSGT"
  protein stability index: 2.59
- SEQUENCE_CODE: "LLRRELMVPGTRHSAVLRDLRSGT"
  protein stability index: 2.49
- SEQUENCE_CODE: "LLQRELMVPGTRHSAELRDLRSGT"
  protein stability index: 2.72
- SEQUENCE_CODE: "LLQRELMWPGTRHSAVLRDLRSGT"
  protein stability index: 2.34
- SEQUENCE_CODE: "LLQRELMVPGTRRSAVLRDLRSGT"
  protein stability index: 3.11
- SEQUENCE_CODE: "LLQRELMVPGTRHSAVLRCLRSGT"
  protein stability index: 1.49
- SEQUENCE_CODE: "LLQRELMVPGTRHSAVLRDLRSAT"
  protein stability index: 2.31
- SEQUENCE_CODE: "LLQRELMVPGTRHSAVLKDLRSGT"
  protein stability index: 2.39
